Measured EC50 values are reported for all entries that follow.
- tgt: γ2δ3 TCR-hFc mutant S1 (D10N in the Vδ3 chain) (human) (UniProt B7Z8K6)
- assay-details: Luminex beads; TCR-hFc captured by goat anti-human Fc; antibody titrated

# binder, EC50
rows = [
    ("δ3-42 (antibody, V domains shown) VH: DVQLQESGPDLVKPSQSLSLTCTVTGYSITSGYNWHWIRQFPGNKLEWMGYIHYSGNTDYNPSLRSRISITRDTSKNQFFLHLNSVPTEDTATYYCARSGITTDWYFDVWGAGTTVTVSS VL: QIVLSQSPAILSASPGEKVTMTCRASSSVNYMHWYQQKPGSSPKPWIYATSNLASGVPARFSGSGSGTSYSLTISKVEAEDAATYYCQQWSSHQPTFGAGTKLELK", "0.07 nM"),
    ("δ3-08 (antibody, V domains shown) VH: EEKLEESGGGLVQPGGSMKLSCVASGFIFSIYWMNWVRQSPEKGLEWVGQIRLKSDNYATHYAESVKGRFTISRDDSKSSVYLQMNNLRAEDTGIYYCMYYGSSYERFAYWGQGTLVTVSA VL: DIQMIQSPASLSVSVGETVTITCRASENIYSNLAWYQQKQGKSPQLLVYVATKLADGVPSRFSGSGSGTQYSLKINSLQSEDFGSYYCQHFWGTPPWTFGGGTKLEIK", "0.08 nM"),
    ("δ3-31 (antibody, V domains shown) VH: DVQLQESGPDLVKPSQSLSLTCTVTGYSITSGYGWHWIRQFPGNKLEWMGYISFSGSNKYNPSLKSRISITRDTSKNQFFLQLNSVTTEDTATYYCANLDYWGQGTTLTVSS VL: DIQMTQRTSSLSASLGDRVTISCSASQDITNYLHWFQQKPDGTVKLLIYYTSTLHSGVPSRFSGSGSGTDYSLTISNLEPEDIATYYCQQYSKLPYTFGGGTKLEITR", "0.06 nM"),
    ("δ3-23 (antibody, V domains shown) VH: EVQLQQSGAELVKPGASVKLSCTASGFNIRDTYMHWVKQRPEQGLEWIGRIDPANGNTKYDPKFRGKATITADTSSNTAYLQLSSLTSEGTAVYYCSEGIYFDYWGQGTTLTVSS VL: DILLTQSPAILSVSPGERVSFSCRASQNIGTIIHWYQQRANGSPRLLIKYASESISGIPSRFSGSGSGTDFTLSINSVESEDIADYYCQQSNSWPYTFGGGTKLEIKR", "0.04 nM"),
    ("δ3-58 (antibody, V domains shown) VH: EVKLVESGGGLVQPGGSLKLSCAASGFTFSSYAMSWVRQTPEKRLEWVAYIRDGGGGTYYPDTVEGRFTISRDNAKNTLYLQMSSLKSEDTAMYYCARHPPMNDWFLYWGQGTLVTVSA VL: DIQMTQSPASLSVSVGETVTITCRASENIYSHLAWYQQKQGKSPQLLVYAATNLADGVPSRFSGSGSGTQYSLKINSLQSEDFGSYYCQHFWGTPYTFGGGTKLEIKR", "0.02 nM"),
]
